# reported inhibition at 0.3 µM; entries follow
biological target: human KV 1.5 (IKur) (Homo sapiens, UniProt P22460); construct: expressed in transfected cells; assay: block of IKur current in patch clamped L-929 cells expressing human Kv1.5; assay type: cell-based; conditions: L929, 0.3 μM; patch clamped mammalian L-929 cells stably expressing human Kv1.5; read-out: KV1_5% Inh L929 @0.3 μM
Sequence (P22460 whole entry): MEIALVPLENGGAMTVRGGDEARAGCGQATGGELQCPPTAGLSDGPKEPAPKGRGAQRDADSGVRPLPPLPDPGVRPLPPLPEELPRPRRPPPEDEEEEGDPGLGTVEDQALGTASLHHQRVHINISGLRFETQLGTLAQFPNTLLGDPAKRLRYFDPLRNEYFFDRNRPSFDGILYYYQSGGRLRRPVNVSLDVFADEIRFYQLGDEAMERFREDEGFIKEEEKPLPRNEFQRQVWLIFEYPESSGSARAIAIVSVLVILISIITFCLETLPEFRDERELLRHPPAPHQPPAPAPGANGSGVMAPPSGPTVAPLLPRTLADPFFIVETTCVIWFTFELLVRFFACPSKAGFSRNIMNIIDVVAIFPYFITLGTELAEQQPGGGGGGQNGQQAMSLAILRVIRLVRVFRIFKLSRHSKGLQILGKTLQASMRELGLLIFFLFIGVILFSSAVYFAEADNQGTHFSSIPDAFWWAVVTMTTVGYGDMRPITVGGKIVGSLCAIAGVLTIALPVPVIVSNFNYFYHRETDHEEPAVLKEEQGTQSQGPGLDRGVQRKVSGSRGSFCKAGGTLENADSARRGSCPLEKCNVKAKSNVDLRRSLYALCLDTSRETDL
Give a bare numeral; the unit % is implied.

A selection of reference data follows.
compound=CS(=O)(=O)Nc1cncc(-c2nc(NCc3ccccn3)c3c(-c4ccc(F)cc4)ccn3n2)c1 unit=% quantitative_result=81.4
compound=CC(=O)Nc1ccccc1-c1nc(NCc2ccccn2)c2c(-c3ccccc3)ccn2n1 unit=% quantitative_result=98.1

Input line: Hi! What's the reported inhibition at 0.3 µM for "CC(=O)Nc1cncc(-c2nc(NCc3ccccn3)c3c(-c4ccccc4)ccn3n2)n1" on human KV 1.5 (IKur) (Homo sapiens, UniProt P22460)?
Output line: 99.4

Input line: Hi! What's the reported inhibition at 0.3 µM for "Nc1ccccc1CNc1nc(-c2cncc(S(N)(=O)=O)c2)nn2ccc(-c3ccccc3)c12" on human KV 1.5 (IKur) (Homo sapiens, UniProt P22460)?
Output line: 99.2

Input line: Hi! What's the reported inhibition at 0.3 µM for "Oc1cc(-c2nc(NCc3ccccn3)c3c(-c4ccccc4)ccn3n2)ccn1" on human KV 1.5 (IKur) (Homo sapiens, UniProt P22460)?
Output line: 94.5

Input line: Hi! What's the reported inhibition at 0.3 µM for "NS(=O)(=O)Nc1cccc(-c2nc(NCc3ccccn3)c3c(-c4ccccc4)ccn3n2)c1" on human KV 1.5 (IKur) (Homo sapiens, UniProt P22460)?
Output line: 97.8

Input line: Hi! What's the reported inhibition at 0.3 µM for "N#Cc1ccc(-c2ccn3nc(-c4cncc(S(N)(=O)=O)c4)nc(NCc4ccccn4)c23)cc1" on human KV 1.5 (IKur) (Homo sapiens, UniProt P22460)?
Output line: 15.6

Input line: Hi! What's the reported inhibition at 0.3 µM for "O=C(c1cncc(-c2nc(NCc3ccccc3)c3c(-c4ccccc4)ccn3n2)c1)N1CCOCC1" on human KV 1.5 (IKur) (Homo sapiens, UniProt P22460)?
Output line: 85.9

Input line: Hi! What's the reported inhibition at 0.3 µM for "Nc1cncc(-c2nc(NCc3ncccn3)c3c(-c4ccccc4)ccn3n2)c1" on human KV 1.5 (IKur) (Homo sapiens, UniProt P22460)?
Output line: 95.6

Input line: Hi! What's the reported inhibition at 0.3 µM for "COC(=O)c1cccc(-c2nc(NCc3ccccn3)c3c(-c4ccccc4)ccn3n2)c1" on human KV 1.5 (IKur) (Homo sapiens, UniProt P22460)?
Output line: 86.3

Input line: Hi! What's the reported inhibition at 0.3 µM for "N#Cc1cc(-c2nc(NCc3ccccc3)c3c(-c4ccccc4)ccn3n2)ccn1" on human KV 1.5 (IKur) (Homo sapiens, UniProt P22460)?
Output line: 88.2
